- System: NCI-H838
- ASSAY METHOD TEXT: relative viability (nuclei count vs DMSO), 5 days (fraction); higher = more cells survive
- PARTICULARS: first compound 0.05 µM
Note to self: use 1 only for relative viability readings below 0.4; a reading exactly at 0.4 still gets -1.

Past entries and their recorded results:
MOLECULE	CLASS NAME
Nc1ccn([C@@H]2O[C@H](CO)[C@@H](O)[C@@H]2O)c(=O)n1 [Cytarabine] + Nc1ncn([C@H]2C[C@H](O)[C@@H](CO)O2)c(=O)n1 [Decitabine] (partner 2 µM)	-1
Nc1ccn([C@@H]2O[C@H](CO)[C@@H](O)[C@@H]2O)c(=O)n1 [Cytarabine] + Cc1nc(Nc2ncc(C(=O)Nc3c(C)cccc3Cl)s2)cc(N2CCN(CCO)CC2)n1 [Dasatinib] (partner 0.075 µM)	1
COc1cc2nccc(Oc3ccc(NC(=O)Nc4cc(C)on4)c(Cl)c3)c2cc1OC [Tivozanib] + Cc1nc(Nc2ncc(C(=O)Nc3c(C)cccc3Cl)s2)cc(N2CCN(CCO)CC2)n1 [Dasatinib] (partner 0.075 µM)	1
COc1cc2nccc(Oc3ccc(NC(=O)Nc4cc(C)on4)c(Cl)c3)c2cc1OC [Tivozanib] + COc1cccc2cc(-c3nc([C@H]4CC[C@H](C(=O)O)CC4)n4ncnc(N)c34)[nH]c12 [OSI-027] (partner 0.5 µM)	1

Please turn your attention to the following entry.
Q: Given the entry COc1cc2nccc(Oc3ccc(NC(=O)Nc4cc(C)on4)c(Cl)c3)c2cc1OC [Tivozanib] + Cc1nc(NC(=O)N2CCC[C@H]2C(N)=O)sc1-c1ccnc(C(C)(C)C(F)(F)F)c1 [Alpelisib] (partner 2 µM) , would its reported relative viability be below 0.4?
Result: -1

====

- System: NCI-H1666
- ASSAY METHOD TEXT: relative viability (nuclei count vs DMSO), 5 days (fraction); higher = more cells survive
- PARTICULARS: first compound 8 µM
Provide the recorded relative viability for the entries that follow.
Numbers only.

# count of solved cases: 4
COMPOUND	QUANTITY NAME	NUMERIC VALUE
O=c1[nH]c2ccccc2n1C1CCN(CCCC(c2ccc(F)cc2)c2ccc(F)cc2)CC1 [Pimozide] + C[C@]1(O)C[C@@H](c2nc(-c3ccc4ccc(-c5ccccc5)nc4c3)c3c(N)nccn32)C1 [Linsitinib] (partner 1 µM)	relative viability	0.635
O=c1[nH]c2ccccc2n1C1CCN(CCCC(c2ccc(F)cc2)c2ccc(F)cc2)CC1 [Pimozide] + Nc1ncn([C@H]2C[C@H](O)[C@@H](CO)O2)c(=O)n1 [Decitabine] (partner 2 µM)	relative viability	0.784
O=c1[nH]c2ccccc2n1C1CCN(CCCC(c2ccc(F)cc2)c2ccc(F)cc2)CC1 [Pimozide] + CC1(C)CCC(c2ccc(Cl)cc2)=C(CN2CCN(c3ccc(C(=O)NS(=O)(=O)c4ccc(N[C@H](CCN5CCOCC5)CSc5ccccc5)c(S(=O)(=O)C(F)(F)F)c4)cc3)CC2)C1 [Navitoclax] (partner 0.5 µM)	relative viability	0.5
O=c1[nH]c2ccccc2n1C1CCN(CCCC(c2ccc(F)cc2)c2ccc(F)cc2)CC1 [Pimozide] + CC(=O)Nc1cccc(-n2c(=O)n(C3CC3)c(=O)c3c(Nc4ccc(I)cc4F)n(C)c(=O)c(C)c32)c1 [Trametinib] (partner 0.02 µM)	relative viability	0.787

--- query ---
Q: Given the entry O=c1[nH]c2ccccc2n1C1CCN(CCCC(c2ccc(F)cc2)c2ccc(F)cc2)CC1 [Pimozide] + CS(=O)(=O)CCNCc1ccc(-c2ccc3ncnc(Nc4ccc(OCc5cccc(F)c5)c(Cl)c4)c3c2)o1 [Lapatinib] (partner 2 µM) , what relative viability was observed with NCI-H1666?
Result: 0.464
